# Test system: P12-Ichikawa
# procedure.details: AUC of viability dose-response curve (% viability x log10 dose units); higher = less sensitive
# experimental.context: RPMI 5 mM glucose + 10% dialyzed FBS; 48 h
Please use satisfied for AUC of viability dose-response curve under 400 and not satisfied for everything else, ties included.

Ask | Input "C=CCNC1=C2C[C@@H](C)C[C@H](OC)[C@H](O)[C@@H](C)/C=C(\C)[C@H](OC(N)=O)[C@@H](OC)/C=C\C=C(/C)C(=O)NC(=CC1=O)C2=O" ; condition: AUC of viability dose-response curve strictly below 400. Does it hold?
Reply | satisfied

Ask | Threshold test, AUC of viability dose-response curve < 400: C1CCC(C(CC2CCCCN2)C2CCCCC2)CC1 (stereo unspecified)
Reply | not satisfied

Ask | Problem: For the compound "CC(C)Nc1cc(C(F)(F)F)cc2nc(NC(=O)c3cccnc3)nn12" , is AUC of viability dose-response curve under 400?
Reply | satisfied

Ask | Quick check: does "OC[C@H](Cc1ccccc1)Nc1nc(Oc2ccc3c(c2)CCC3)nc2c1ncn2Cc1ccc(-c2ccccc2)cc1" have AUC of viability dose-response curve under 400?
Reply | not satisfied

Ask | Threshold test, AUC of viability dose-response curve < 400: "C\C1=C\N([C@H]2C[C@H](N=[N+]=[N-])[C@@H](CO)O2)C(=O)NC1=O"
Reply | not satisfied

Ask | Identify whether the compound CCOc1cc(N)c(Cl)cc1C(=O)NCC1CN(Cc2ccc(F)cc2)CCO1 (stereo unspecified) records AUC of viability dose-response curve below 400.
Reply | not satisfied

Ask | Consider the compound "CN(C/C=C/C#CC(C)(C)C)Cc1cccc2ccccc12" . Is its AUC of viability dose-response curve strictly less than 400?
Reply | not satisfied

Ask | Given "CC\1=C(C(=O)N(\C=C1)C2=CC=C(C=C2)C3=NC=CO3)/C4=CC5=CN=C(N)N=C5C=C4" , is recorded AUC of viability dose-response curve strictly lower than 400?
Reply | not satisfied

Ask | Does the reported AUC of viability dose-response curve of "Cc1cccc(-c2nn(C(=S)Nc3ccccc3)cc2-c2ccnc3ccccc23)n1" stay below 400?
Reply | not satisfied

Ask | Identify whether the compound "O=C(Nc1cccc(Nc2ncc(Br)c(NCCc3cnc[nH]3)n2)c1)N1CCCC1" records AUC of viability dose-response curve below 400.
Reply | satisfied

Ask | Here's an entry: "CCc1cccc(CC)c1NC(=O)N1Cc2[nH]nc(NC(=O)c3ccc(N4CCN(C)CC4)cc3)c2C1" . Is its AUC of viability dose-response curve below 400?
Reply | satisfied

Ask | Given the entry "OCc1ccc(-c2nn(Cc3ccccc3)c3ccccc23)o1" , would its reported AUC of viability dose-response curve be below 400?
Reply | not satisfied

Ask | Regarding "Oc1ccc(/C=C/c2cc(O)cc(O)c2)cc1" , kindly confirm whether its AUC of viability dose-response curve is beneath 400.
Reply | not satisfied

Ask | For this compound, is AUC of viability dose-response curve lower than 400? "OC(=O)\C1=C\N(C2=CC=C(F)C=C2)C3=C(C=C(F)C(=C3)N4CCNCC4)C1=O"
Reply | not satisfied

Ask | Dear reviewer, please state whether "C[N+]1(C)[C@@H]2C[C@@H](OC(=O)[C@H](CO)c3ccccc3)C[C@H]1[C@@H]1O[C@@H]12.[Br-]" has AUC of viability dose-response curve strictly beneath 400.
Reply | not satisfied

Ask | # check: AUC of viability dose-response curve < 400 for "CCCCCCCc1ccc(CCc2cccc(O)c2C(=O)O)cc1"
Reply | not satisfied

Ask | is_below(AUC of viability dose-response curve, 400) for "Cc1cccc(C#Cc2ccccc2)n1" ?
Reply | not satisfied

Ask | Could you please tell me whether AUC of viability dose-response curve recorded for "CC(C)(C)C(=O)Oc1ccc([S+](=O)([O-])Nc2ccccc2C(=O)NCC(=O)O)cc1" is less than 400?
Reply | not satisfied

Ask | Is AUC of viability dose-response curve strictly under 400 for the entry "CC1=CC=CC=C1CN2C(=O)C/3=C(/CCN(CC4=CC=CC=C4)C3)N\5CC\N=C25" ?
Reply | not satisfied

Ask | is_below(AUC of viability dose-response curve, 400) for CC(=O)CC(C1=CC=CC=C1)C/2=C(O)/C3=CC=CC=C3OC2=O (stereo unspecified) ?
Reply | not satisfied

Ask | is_below(AUC of viability dose-response curve, 400) for "C\C1=C\C(=O)C2=C(C=CC=C2)C1=O" ?
Reply | not satisfied

Ask | Hello, I'm reviewing records and need to know if AUC of viability dose-response curve of "ClC1=CC(=CC=C1)N2CCN(CCCN3\N=C4\C=C/C=C\N4C3=O)CC2" is below 400. Could you check?
Reply | not satisfied

Ask | Determine whether this compound shows AUC of viability dose-response curve lower than 400 (ties excluded): CC(C)C[C@H](NC(=O)CNC(=O)c1cc(Cl)ccc1Cl)B1OC(=O)CC(CC(=O)O)(C(=O)O)O1 (stereo partly specified)
Reply | satisfied

Ask | Bench note: check whether "CC(C)(C)C(=O)OCOP(=O)(COCCn1cnc2c(N)ncnc21)OCOC(=O)C(C)(C)C" shows AUC of viability dose-response curve below 400
Reply | satisfied

Ask | Below 400 on AUC of viability dose-response curve? Entry COc1cc(O)c2c(c1)C1OC1C[C@H](O)[C@H](O)C(=O)/C=C\C[C@H](C)OC2=O (stereo partly specified)
Reply | not satisfied

Values from the supplement of paper PMC11451515
